- system.name: HIV Env of isolate WEAU_d15_410_5017 (clade B) (HIV)
- test.name: cell-based or functional assay
measured.parameter: IC50 (µg/ml) with constrains (µg/mL)
Give just the number in µg/mL; leave the unit off.

**Q:** What IC50 (µg/ml) with constrains value was documented for this binder, ePGDM5 (antibody, V domains shown) VH: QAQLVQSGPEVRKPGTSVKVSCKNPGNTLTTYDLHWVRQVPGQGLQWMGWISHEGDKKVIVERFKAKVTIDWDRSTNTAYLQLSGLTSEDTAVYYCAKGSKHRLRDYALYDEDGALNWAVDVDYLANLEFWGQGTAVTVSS VL: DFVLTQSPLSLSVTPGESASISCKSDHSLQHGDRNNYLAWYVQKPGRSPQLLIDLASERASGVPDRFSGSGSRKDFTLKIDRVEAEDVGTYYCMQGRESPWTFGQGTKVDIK ?
**A:** 0.001

The reported numbers originate from patent US20230134571A1.
